- EXPERIMENT_SUMMARY: AUC (0 to infinity) in CD1 mouse at 5 mg/kg, iv
- Type: ADME, organism-based
- Parameters: time infinity, dose 5 mg/kg, route intravenous
- ASSAY_CONTEXT: plasma
ENDPOINT_LABEL: AUC(0-inf) (µg·h/mL)

Guide cases for AUC(0-inf), answers given:
>>> measured_result("O=C(/C=C/c1ccc2c(c1)C(=O)NC1(CCN(Cc3ccccc3)CC1)O2)NO")
1.53
>>> measured_result("O=C(/C=C/c1ccc2c(c1)C(=O)CC1(CCN(Cc3ccc(F)cc3)CC1)O2)NO")
1.49

1 = O=C(/C=C/c1ccc2c(c1)C(=O)NC1(CCN(Cc3ccc(F)cc3)CC1)O2)NO
2 = O=C(/C=C/c1ccc2c(c1)C(=O)CC1(CCN(CCc3ccccc3)CC1)O2)NO
Task: Which one would you say has the larger AUC(0-inf) value: 1 , or 2 ? Return value: the label identifying the chosen record.
Result: 1

* * *

- EXPERIMENT_SUMMARY: Clearance in CD1 mouse at 5 mg/kg, iv and 15 mg/kg, po
- Format: ADME, organism-based
- ASSAY_CONTEXT: in vivo
ENDPOINT_LABEL: clearance (mL/min/kg)

P = O=C(/C=C/c1ccc2c(c1)C(=O)NC1(CCN(Cc3ccccc3)CC1)O2)NO
Q = O=C(/C=C/c1ccc2c(c1)C(=O)CC1(CCN(CCc3ccccc3)CC1)O2)NO
Task: Input pair: P , Q . Output: entry with lower clearance. Return value: the label identifying the chosen record.
Result: P

* * *

- EXPERIMENT_SUMMARY: Tmax in CD1 mouse at 5 mg/kg, iv and 15 mg/kg, po
- Format: ADME, organism-based
- ASSAY_CONTEXT: in vivo
ENDPOINT_LABEL: Tmax (min)

A = O=C(/C=C/c1ccc2c(c1)C(=O)CC1(CCN(CCc3ccccc3)CC1)O2)NO
B = O=C(/C=C/c1ccc2c(c1)C(=O)NC1(CCN(Cc3ccc(F)cc3)CC1)O2)NO
Task: Which one would you say has the larger Tmax value: A , or B ? Return value: the label identifying the chosen record.
Result: A

* * *

- STUDY_SYSTEM: Histone deacetylase
- EXPERIMENT_SUMMARY: Inhibition of HDAC in human Hela cell nuclear extract after 15 mins
- Type: protein assay
ENDPOINT_LABEL: IC50 (µM)

>>> measured_result("O=C(/C=C/c1ccc2c(c1)C(=O)NC1(CCN(Cc3ccccc3)CC1)O2)NO")
0.083
>>> measured_result("O=C(/C=C/c1ccc2c(c1)C(=O)CC1(CCN(Cc3ccc(F)cc3)CC1)O2)NO")
0.108

P = CN1C(=O)c2cc(/C=C/C(=O)NO)ccc2OC12CCN(CCc1ccccc1)CC2
Q = O=C(/C=C/c1ccc2c(c1)C(=O)N(Cc1ccccc1)C1(CCN(Cc3ccc(F)cc3)CC1)O2)NO
R = O=C(/C=C/c1ccc2c(c1)C(=O)NC1(CCN(Cc3ccc(F)cc3)CC1)O2)NO
Task: Hey, can you sort those compounds up there by IC50, smallest first? Write the labels out in the order the request specifies.
Result: R, P, Q

1 = CN1C(=O)c2cc(/C=C/C(=O)NO)ccc2OC12CCN(Cc1ccccc1)CC2
2 = O=C(/C=C/c1ccc2c(c1)C(=O)N(Cc1ccccc1)C1(CCN(Cc3ccccc3)CC1)O2)NO
Task: Which one would you say has the larger IC50 value: 1 , or 2 ? Return value: the label identifying the chosen record.
Result: 2
(2: 0.54 µM, 1: 0.136 µM)

P = O=C(/C=C/c1ccc2c(c1)C(=O)NC1(CCNCC1)O2)NO
Q = CN1CCC2(CC1)Oc1ccc(/C=C/C(=O)NO)cc1C(=O)N2C
R = CN1C(=O)c2cc(/C=C/C(=O)NO)ccc2OC12CCNCC2
S = CN1C(=O)c2cc(/C=C/C(=O)NO)ccc2OC12CCN(Cc1ccc(F)cc1)CC2
Task: Hey, can you sort those compounds up there by IC50, smallest first? Write the labels out in the order the request specifies.
Result: P, S, R, Q
(P: 0.078 µM, S: 0.137 µM, R: 0.204 µM, Q: 0.527 µM)

A = CN1CCC2(CC1)Oc1ccc(/C=C/C(=O)NO)cc1C(=O)N2Cc1ccccc1
B = O=C(/C=C/c1ccc2c(c1)C(=O)N(Cc1ccccc1)C1(CCNCC1)O2)NO
C = CN1CCC2(CC1)NC(=O)c1cc(/C=C/C(=O)NO)ccc1O2
D = O=C(/C=C/c1ccc2c(c1)C(=O)N(Cc1ccccc1)C1(CCN(CCc3ccccc3)CC1)O2)NO
Task: Hey, can you sort those compounds up there by IC50, smallest first? Write the labels out in the order the request specifies.
Result: B, C, A, D

* * *

- EXPERIMENT_SUMMARY: Volume of distribution at steady state in CD1 mouse at 5 mg/kg, iv and 15 mg/kg, po
- Assay type: ADME, organism-based
- ASSAY_CONTEXT: in vivo, read-out: Vdss
ENDPOINT_LABEL: Vd (L/kg)

Guide cases for Vd, answers given:
>>> measured_result("O=C(/C=C/c1ccc2c(c1)C(=O)NC1(CCN(Cc3ccc(F)cc3)CC1)O2)NO")
3.1
>>> measured_result("O=C(/C=C/c1ccc2c(c1)C(=O)CC1(CCN(CCc3ccccc3)CC1)O2)NO")
8.6

A = O=C(/C=C/c1ccc2c(c1)C(=O)NC1(CCN(Cc3ccccc3)CC1)O2)NO
B = O=C(/C=C/c1ccc2c(c1)C(=O)CC1(CCN(Cc3ccc(F)cc3)CC1)O2)NO
Task: Input pair: A , B . Output: entry with lower Vd. Return value: the label identifying the chosen record.
Result: B
(B: 5.9 L/kg, A: 8.5 L/kg)

* * *

- EXPERIMENT_SUMMARY: Cmax in CD1 mouse at 5 mg/kg, iv
- Assay type: ADME, organism-based
- Parameters: dose 5 mg/kg, route intravenous
- ASSAY_CONTEXT: in vivo
ENDPOINT_LABEL: Cmax (µM)

Guide cases for Cmax, answers given:
>>> measured_result("O=C(/C=C/c1ccc2c(c1)C(=O)NC1(CCN(Cc3ccc(F)cc3)CC1)O2)NO")
13
>>> measured_result("O=C(/C=C/c1ccc2c(c1)C(=O)NC1(CCN(Cc3ccccc3)CC1)O2)NO")
13.5

a = O=C(/C=C/c1ccc2c(c1)C(=O)CC1(CCN(CCc3ccccc3)CC1)O2)NO
b = O=C(/C=C/c1ccc2c(c1)C(=O)CC1(CCN(Cc3ccc(F)cc3)CC1)O2)NO
Task: Input pair: a , b . Output: entry with lower Cmax. Return value: the label identifying the chosen record.
Result: a

* * *

- EXPERIMENT_SUMMARY: Metabolic stability in human liver microsomes after 30 mins by LC-MS/MS analysis
- Type: ADME, Microsome
- ASSAY_CONTEXT: read-out: Stability
ENDPOINT_LABEL: remaining at 0.5 h (%)

>>> measured_result("O=C(/C=C/c1ccc2c(c1)C(=O)NC1(CCN(CCc3ccccc3)CC1)O2)NO")
68
>>> measured_result("CN1C(=O)c2cc(/C=C/C(=O)NO)ccc2OC12CCN(Cc1ccc(F)cc1)CC2")
60
>>> measured_result("O=C(/C=C/c1ccc2c(c1)C(=O)NC1(CCN(Cc3ccc(F)cc3)CC1)O2)NO")
71
>>> measured_result("CN1CCC2(CC1)Oc1ccc(/C=C/C(=O)NO)cc1C(=O)N2Cc1ccccc1")
53
>>> measured_result("O=C(/C=C/c1ccc2c(c1)C(=O)NC1(CCN(Cc3ccccc3)CC1)O2)NO")
77
>>> measured_result("O=C(/C=C/c1ccc2c(c1)C(=O)CC1(CCN(Cc3ccccc3)CC1)O2)NO")
55

* * *

- Tested on: HCT-116
- EXPERIMENT_SUMMARY: Cytotoxicity against human HCT116 cells
- Format: functional, cell-based
ENDPOINT_LABEL: IC50 (µM)
Answer with a number only, understood to be in µM.

>>> measured_result("CN1C(=O)c2cc(/C=C/C(=O)NO)ccc2OC12CCN(Cc1ccccc1)CC2")
0.979
>>> measured_result("O=C(/C=C/c1ccc2c(c1)C(=O)CC1(CCN(Cc3ccc(F)cc3)CC1)O2)NO")
0.777
>>> measured_result("CN1C(=O)c2cc(/C=C/C(=O)NO)ccc2OC12CCN(CCc1ccccc1)CC2")
1.06
>>> measured_result("CN1CCC2(CC1)NC(=O)c1cc(/C=C/C(=O)NO)ccc1O2")
0.886
>>> measured_result("CN1CCC2(CC1)Oc1ccc(/C=C/C(=O)NO)cc1C(=O)N2C")
1.4

Form field IC50 for item O=C(/C=C/c1ccc2c(c1)C(=O)N(Cc1ccccc1)C1(CCNCC1)O2)NO on HCT-116: 0.857

Form field IC50 for item CN1C(=O)c2cc(/C=C/C(=O)NO)ccc2OC12CCN(Cc1ccc(F)cc1)CC2 on HCT-116: 0.848
